measurement-notes: Inhibition of reverse transcriptase L100I mutant in HIV-1 infected in human MT4 cells assessed as reduction in virus-induced cytopathic effect incubated for 5 days by MTT assay
property-name: pEC50
Schema: pEC50 number; meaning minus log10 of the concentration expressed in molar units.

Solved entries:
molecule	pEC50
Cc1cc(/C=C/C#N)cc(C)c1Oc1nc(Nc2ccc(N3CCCC(NS(N)(=O)=O)C3)cc2)nc2sccc12 (configuration not stated)	5.63
Cc1cc(/C=C/C#N)cc(C)c1Oc1nc(Nc2ccc(N3CCCC(NS(C)(=O)=O)C3)cc2)nc2sccc12 (configuration not stated)	5.07
Cc1cc(/C=C/C#N)cc(C)c1Oc1nc(Nc2ccc(N3CCN(S(N)(=O)=O)CC3)cc2)nc2ccsc12	6.12
Cc1cc(/C=C/C#N)cc(C)c1Oc1nc(Nc2ccc(N3CCCC(NS(C)(=O)=O)C3)cc2)nc2ccsc12 (configuration not stated)	5.17
Cc1cc(/C=C/C#N)cc(C)c1Oc1nc(Nc2ccc(CN3CCN(S(C)(=O)=O)CC3)cc2)nc2ccsc12	5.81

Data request, read-out pEC50, for Cc1cc(/C=C/C#N)cc(C)c1Oc1nc(Nc2ccc(CN3CCN(S(C)(=O)=O)CC3)cc2)nc2sccc12
6.41

Query Cc1cc(/C=C/C#N)cc(C)c1Oc1nc(Nc2ccc(N3CCCC(NS(N)(=O)=O)C3)cc2)nc2ccsc12 (configuration not stated) next
5.78
